These entries and their values trace back to patent US20250263490A1.

TGT: T1, recombinant human domain 1-3His6 of the cation-independent mannose-6-phosphate receptor (human, UniProt P11717 41-467)
T1 construct: Biotinylated (NHS-PEG4-biotin) for BLI; Glycosylated; also called hDom1-3His6; hCI-M6PRD1-D3
ASSAY OVERVIEW: BLI exp 1, dissoc pH 7.4
EXPERIMENTAL READOUT: kon (M⁻¹ s⁻¹)
Kindly provide the numeric value in M⁻¹ s⁻¹ only, without the unit symbol.

{"columns": ["BINDER", "kon [M⁻¹ s⁻¹]"],
 "data": [
  ["anti-CI-M6PR VHH2 (VHH, His6-tagged; made in Pichia pastoris) VHH: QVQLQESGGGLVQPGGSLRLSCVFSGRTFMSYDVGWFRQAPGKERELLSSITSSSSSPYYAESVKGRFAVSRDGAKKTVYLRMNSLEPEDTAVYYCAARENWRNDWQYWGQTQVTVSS", 679000],
  ["anti-CI-M6PR VHH9 (VHH, His6-tagged; made in Pichia pastoris) VHH: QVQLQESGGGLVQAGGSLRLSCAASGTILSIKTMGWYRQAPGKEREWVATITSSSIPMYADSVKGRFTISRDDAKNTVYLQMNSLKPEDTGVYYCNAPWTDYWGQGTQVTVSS", "1.57e+06"],
  ["anti-CI-M6PR VHH10 (VHH, His6-tagged; made in Pichia pastoris) VHH: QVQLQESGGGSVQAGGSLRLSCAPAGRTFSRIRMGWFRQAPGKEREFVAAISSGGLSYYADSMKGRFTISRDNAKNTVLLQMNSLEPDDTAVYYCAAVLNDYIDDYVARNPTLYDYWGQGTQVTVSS", 38100],
  ["anti-CI-M6PR VHH3 (VHH, His6-tagged; made in Pichia pastoris) VHH: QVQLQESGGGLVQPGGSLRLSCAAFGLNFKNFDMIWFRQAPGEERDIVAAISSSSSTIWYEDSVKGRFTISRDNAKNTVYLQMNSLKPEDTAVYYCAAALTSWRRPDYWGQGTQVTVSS", 853000]
]}

stdin: Entry under review: anti-CI-M6PR VHH5 (VHH, His6-tagged; made in Pichia pastoris, later also in E. coli WK6) VHH: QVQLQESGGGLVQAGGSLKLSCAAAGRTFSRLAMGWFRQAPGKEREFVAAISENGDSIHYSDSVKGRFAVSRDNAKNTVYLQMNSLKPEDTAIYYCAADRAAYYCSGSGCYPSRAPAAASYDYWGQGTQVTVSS . Reported kon?
stdout: 1.37e+06
